method.notes: physchem
condition.info: FaSSIF, 23 °C, thermodynamic from solid
quantity: log10 solubility thermodynamic at 24 h (log10 of the value in µg/mL)
A value of 2 here means solubility thermodynamic at 24 h of 100 in µg/mL, since values are log10.

Example compounds with recorded log10 solubility thermodynamic at 24 h:
- CC1=NO[C@@]2(CC[C@H](C)N3C[C@H]2n2cc(C(=O)NCc4ccc(F)cc4F)c(=O)c(OCOC(=O)O[C@@H]4CC[C@H](OP(=O)(O)O)C4)c2C3=O)C1 [Compound 54]: 3.72
- CCCCCCCCCCCCCC(=O)Oc1ccc(CC(=O)Oc2c3n(cc(C(=O)NCc4ccc(F)cc4F)c2=O)[C@@H]2CN(C3=O)[C@@H](C)CC[C@]23CC(C)=NO3)cc1 [Compound 96]: 1.13
- CC1=NO[C@@]2(CC[C@H](C)N3C[C@H]2n2cc(C(=O)NCc4ccc(F)cc4F)c(=O)c(OCOC(=O)N(C)C[C@@H]4CCCN4C(=O)OCOP(=O)(O)O)c2C3=O)C1 [Compound 14]: 3.71
- CC1=NO[C@@]2(CC[C@H](C)N3C[C@H]2n2cc(C(=O)NCc4ccc(F)cc4F)c(=O)c(OCOC(=O)N(C)c4ncccc4CN(CC(=O)O)C(=O)OCOP(=O)(O)O)c2C3=O)C1 [Compound 7]: 3.67
- CCCCCCCCCCCCCC(=O)Nc1ccc(CC(=O)Oc2c3n(cc(C(=O)NCc4ccc(F)cc4F)c2=O)[C@@H]2CN(C3=O)[C@@H](C)CC[C@]23CC(C)=NO3)cc1 [Compound 94]: 1.28
- COC1=NO[C@@]2(CC[C@H](C)N3C[C@H]2n2cc(C(=O)NCc4ccc(F)cc4F)c(=O)c(OCOC(=O)N(C)c4ncccc4COP(=O)(O)O)c2C3=O)C1 [Compound 3]: 3.73

Entry CC1=NO[C@@]2(CC[C@H](C)N3C[C@H]2n2cc(C(=O)NCc4ccc(F)cc4F)c(=O)c(OCOC(=O)O[C@H]4CCCC[C@H]4COP(=O)(O)O)c2C3=O)C1 [Compound 53] — recorded log10 solubility thermodynamic at 24 h = 3.67

Entry CC1=NO[C@@]2(CC[C@H](C)N3C[C@H]2n2cc(C(=O)NCc4ccc(F)cc4F)c(=O)c(OCOC(=O)OCC4(COP(=O)(O)O)CCC4)c2C3=O)C1 [Compound 47] — recorded log10 solubility thermodynamic at 24 h = 3.69

---

Below, each of the compounds is paired with its reported solubility thermodynamic at 24 h value.
method.notes: physchem
condition.info: FaSSIF, 23 °C, thermodynamic from solid
The reply should contain only the number, in µg/mL.

- CC1=NO[C@@]2(CC[C@H](C)N3C[C@H]2n2cc(C(=O)NCc4ccc(F)cc4F)c(=O)c(OCOC(=O)O[C@H]4CCCC[C@H]4OP(=O)(O)O)c2C3=O)C1: 4400
- COC1=NO[C@@]2(CC[C@H](C)N3C[C@H]2n2cc(C(=O)NCc4ccc(F)cc4F)c(=O)c(OCOC(=O)N(C)C[C@@H]4CCCN4)c2C3=O)C1: 1480
- CC1=NO[C@@]2(CC[C@H](C)N3C[C@H]2n2cc(C(=O)NCc4ccc(F)cc4F)c(=O)c(OCOC(=O)N(C)c4ncccc4COC(=O)[C@@H](N)C(C)C)c2C3=O)C1: 2700
- CC1=NO[C@@]2(CC[C@H](C)N3C[C@H]2n2cc(C(=O)NCc4ccc(F)cc4F)c(=O)c(OCOC(=O)OCC4(COP(=O)(O)O)COC4)c2C3=O)C1: 3560
- CC1=NO[C@@]2(CC[C@H](C)N3C[C@H]2n2cc(C(=O)NCc4ccc(F)cc4F)c(=O)c(OCOC(=O)O[C@@H]4CCCC[C@H]4OP(=O)(O)O)c2C3=O)C1: 5320
- CCCCCCCCCCCCCC(=O)Nc1ccc(CC(=O)Oc2c3n(cc(C(=O)NCc4ccc(F)cc4F)c2=O)[C@@H]2CN(C3=O)[C@@H](C)CC[C@]23CC(OC)=NO3)cc1: 6
- CC1=NO[C@@]2(CC[C@H](C)N3C[C@H]2n2cc(C(=O)NCc4ccc(F)cc4F)c(=O)c(OCOC(=O)N4CCC[C@H]4COP(=O)(O)O)c2C3=O)C1: 4820
- CNCC(=O)OCc1cccnc1N(C)C(=O)OCOc1c2n(cc(C(=O)NCc3ccc(F)cc3F)c1=O)[C@@H]1CN(C2=O)[C@@H](C)CC[C@]12CC(C)=NO2: 3240

Entry `CC1=NO[C@@]2(CC[C@H](C)N3C[C@H]2n2cc(C(=O)NCc4ccc(F)cc4F)c(=O)c(OCOC(=O)N(C)c4ncccc4COC(=O)[C@@H](N)CCCCN)c2C3=O)C1` — recorded solubility thermodynamic at 24 h = 3320

Entry `CC1=NO[C@@]2(CC[C@H](C)N3C[C@H]2n2cc(C(=O)NCc4ccc(F)cc4F)c(=O)c(OCc4oc(=O)oc4C)c2C3=O)C1` — recorded solubility thermodynamic at 24 h = 90

Entry `CCCCCCCCCCCCCC(=O)Oc1ccc(C(=O)Oc2c3n(cc(C(=O)NCc4ccc(F)cc4F)c2=O)[C@@H]2CN(C3=O)[C@@H](C)CC[C@]23CC(OC)=NO3)cc1` — recorded solubility thermodynamic at 24 h = 13

Entry `CCCCCCCCCCCCCC(=O)Oc1ccc(C(=O)Oc2c3n(cc(C(=O)NCc4ccc(F)cc4F)c2=O)[C@@H]2CN(C3=O)[C@@H](C)CC[C@]23CC(C)=NO3)cc1` — recorded solubility thermodynamic at 24 h = 64.5

Entry `CC1=NO[C@@]2(CC[C@H](C)N3C[C@H]2n2cc(C(=O)NCc4ccc(F)cc4F)c(=O)c(OCOC(=O)O[C@H]4CCCC[C@@H]4OP(=O)(O)O)c2C3=O)C1` — recorded solubility thermodynamic at 24 h = 4440

Entry `CC1=NO[C@@]2(CC[C@H](C)N3C[C@H]2n2cc(C(=O)NCc4ccc(F)cc4F)c(=O)c(OCOC(=O)[C@@H]4[C@H](COP(=O)(O)O)[C@H]4C(=O)O)c2C3=O)C1` — recorded solubility thermodynamic at 24 h = 5140

Entry `CC1=NO[C@@]2(CC[C@H](C)N3C[C@H]2n2cc(C(=O)NCc4ccc(F)cc4F)c(=O)c(OCOC(=O)O[C@H]4CCC[C@@H]4OP(=O)(O)O)c2C3=O)C1` — recorded solubility thermodynamic at 24 h = 4850

Attribution: patent US20250127801A1
